tested_on: glucose oxidase (Aspergillus niger)
Sequence (P13006 23-605): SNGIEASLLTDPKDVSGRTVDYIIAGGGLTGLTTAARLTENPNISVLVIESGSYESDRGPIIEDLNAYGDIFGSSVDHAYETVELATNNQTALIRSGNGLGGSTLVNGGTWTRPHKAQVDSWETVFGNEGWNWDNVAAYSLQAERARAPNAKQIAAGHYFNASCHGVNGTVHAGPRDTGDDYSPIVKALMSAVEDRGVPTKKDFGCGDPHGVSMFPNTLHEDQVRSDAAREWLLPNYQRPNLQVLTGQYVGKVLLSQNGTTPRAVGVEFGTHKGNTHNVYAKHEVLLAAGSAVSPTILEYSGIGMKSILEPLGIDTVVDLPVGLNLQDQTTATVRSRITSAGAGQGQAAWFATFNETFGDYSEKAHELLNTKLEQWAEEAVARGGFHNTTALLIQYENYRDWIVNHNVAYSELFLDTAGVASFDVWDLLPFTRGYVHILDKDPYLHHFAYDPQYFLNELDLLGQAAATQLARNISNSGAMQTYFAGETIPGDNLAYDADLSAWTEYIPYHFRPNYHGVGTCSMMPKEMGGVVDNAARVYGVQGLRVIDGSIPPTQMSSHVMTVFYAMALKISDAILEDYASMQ
measurement_description: substrate kinetics of glucose oxidase (relative rate, Km)
Format: biochemical
recorded_conditions: substrates for glucose oxidase; β-D-glucose 100
measured_attribute: Relative Rate

Form field Relative Rate, entry OC[C@H]1OC(O)C[C@@H](O)[C@@H]1O (stereo partly shown) : 25

Form field Relative Rate, entry OC[C@H]1O[C@@H](O)[C@H](O)[C@@H](O)[C@@H]1O : 100

Form field Relative Rate, entry OC[C@H]1O[C@H](O)[C@H](O)[C@@H](O)[C@@H]1O : 0.6

Form field Relative Rate, entry OC[C@H]1OC(O)[C@@H](O)[C@@H](O)[C@@H]1O (stereo partly shown) : 1
